Values were extracted from patent US20250326771A1.

# target: cIAP2-BIR3 (Homo sapiens (Human))
# test_method_notes: BIR binding assay (FRET competition), cIAP2 BIR3
quantity: IC50

C[C@@H]1CN(CC(=O)N2CC(C)(C)c3[nH]c(=O)c(Oc4ccc(Cl)cc4)cc32)[C@@H](CN2CCO[C@H](C(=O)NCc3ccc(CNC(=O)[C@@H]4CN(C[C@H]5CN[C@H](C)CN5CC(=O)N5CC(C)(C)c6[nH]c(=O)c(Oc7ccc(Cl)cc7)cc65)CCO4)cc3)C2)CN1; 1.38 to 7.94 nM
C[C@@H]1CN(CC(=O)N2CC(C)(C)c3[nH]c(=O)c(Cc4ccc(Cl)cc4C(F)(F)F)cc32)[C@@H](CN2CCO[C@H](C(=O)NCc3ccc(CNC(=O)[C@@H]4CN(C[C@H]5CN[C@H](C)CN5CC(=O)N5CC(C)(C)c6[nH]c(=O)c(Cc7ccc(Cl)cc7C(F)(F)F)cc65)CCO4)cc3)C2)CN1; 1.38 to 7.94 nM
C[C@@H]1CN(CC(=O)N2CC(C)(C)c3[nH]c(=O)c(Cc4ccc(F)cc4)cc32)[C@@H](CN2CCC(CN(C)C(=O)Cc3ccc(CC(=O)N(C)CC4CCN(C[C@H]5CN[C@H](C)CN5CC(=O)N5CC(C)(C)c6[nH]c(=O)c(Cc7ccc(F)cc7)cc65)CC4)cc3)CC2)CN1; 7.94 to 15.8 nM

====

# target: cIAP2-BIR3 (Homo sapiens (Human), UniProt Q13489)
# Sequence (Q13489 238-349): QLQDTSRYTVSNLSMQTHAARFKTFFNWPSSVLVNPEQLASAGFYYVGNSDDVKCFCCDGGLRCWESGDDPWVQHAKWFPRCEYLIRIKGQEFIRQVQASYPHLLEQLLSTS
# test_method_notes: BIR binding assay (FRET competition), cIAP2 BIR3
pIC50: −log10 of the molar value.
quantity: pIC50

C[C@@H]1CN(CC(=O)N2CC(C)(C)c3[nH]c(=O)c(Cc4ccc(Cl)cc4C#N)cc32)[C@@H](CN2CCO[C@H](COc3cccc(OC[C@@H]4CN(C[C@H]5CN[C@H](C)CN5CC(=O)N5CC(C)(C)c6[nH]c(=O)c(Cc7ccc(Cl)cc7C#N)cc65)CCO4)c3)C2)CN1 [Compound 189]; 7.50 to 7.80
C[C@@H]1CN(CC(=O)N2CC(C)(C)c3ncc(Cc4ccccc4)cc32)[C@@H](CN2CCO[C@H](COc3cccc(OC[C@@H]4CN(C[C@H]5CN[C@H](C)CN5CC(=O)N5CC(C)(C)c6ncc(Cc7ccccc7)cc65)CCO4)c3)C2)CN1 [Compound 150]; 7.80 to 8.10
Cc1ccc(Cc2cc3c([nH]c2=O)C(C)(C)CN3C(=O)CN2C[C@@H](C)NC[C@@H]2CN2CCO[C@H](C(=O)NCc3ccc(CNC(=O)[C@@H]4CN(C[C@H]5CN[C@H](C)CN5CC(=O)N5CC(C)(C)c6[nH]c(=O)c(Cc7ccc(C)cc7)cc65)CCO4)cc3)C2)cc1 [Compound 163]; 8.10 to 8.86
C[C@@H]1CN(CC(=O)N2CC(C)(C)c3[nH]c(=O)c(Cc4ccc(F)cc4)cc32)[C@@H](CN2CCO[C@H](C(=O)NCCCCCNC(=O)[C@@H]3CN(C[C@H]4CN[C@H](C)CN4CC(=O)N4CC(C)(C)c5[nH]c(=O)c(Cc6ccc(F)cc6)cc54)CCO3)C2)CN1 [Compound 136]; 7.80 to 8.10
C[C@@H]1CN(CC(=O)N2CC(C)(C)c3[nH]c(=O)c(Cc4ccc(F)cc4)cc32)[C@@H](CN2CCN(C(=O)c3ccnc(-c4cc(C(=O)N5CCN(C[C@H]6CN[C@H](C)CN6CC(=O)N6CC(C)(C)c7[nH]c(=O)c(Cc8ccc(F)cc8)cc76)[C@H](C)C5)ccn4)c3)C[C@H]2C)CN1 [Example 23]; 8.10 to 8.86
C[C@@H]1CN(CC(=O)N2CC(C)(C)c3[nH]c(=O)c(Cc4ccc(F)cc4)cc32)[C@@H](CN2CCO[C@H](C(=O)N(C)CCCCN(C)C(=O)[C@@H]3CN(C[C@H]4CN[C@H](C)CN4CC(=O)N4CC(C)(C)c5[nH]c(=O)c(Cc6ccc(F)cc6)cc54)CCO3)C2)CN1 [Example 127]; 7.80 to 8.10
C[C@@H]1CN(CC(=O)N2CC(C)(C)c3[nH]c(=O)c(Cc4c(F)cc(F)cc4F)cc32)[C@@H](CN2CCO[C@H](COc3cccc(OC[C@@H]4CN(C[C@H]5CN[C@H](C)CN5CC(=O)N5CC(C)(C)c6[nH]c(=O)c(Cc7c(F)cc(F)cc7F)cc65)CCO4)c3)C2)CN1 [Compound 188]; 7.50 to 7.80
